Record form. Attribute: EC50. Fill in for each entry.
system: CEM cells HIV-1 protection, formazan growth assay; test: NCI AIDS Antiviral Assay
Where a SMILES comes first, the peptide text is derived from it. The star is where a group is joined. Cbz = O=C(OCc1ccccc1)*; Boc = CC(C)(C)OC(=O)*; Bn = c1ccc(C*)cc1

# example entries with known answers
COMPOUND: CC(C)(C)OC(=O)NC(Cc1ccc(OCc2ccccc2)cc1)C(=O)NC(CCCCNC(=O)OCc1ccccc1)C(=O)O (stereo not given) (Boc-Tyr(Bn)-Lys(Cbz)-OH; configuration not given here)
MEASURED PARAMETER: EC50
MEASURED RESULT: > 200 µM
--
COMPOUND: CSc1nc2cc(Cl)ccc2c2c1C=NCCN2
MEASURED PARAMETER: EC50
MEASURED RESULT: > 93.3 µM
--
COMPOUND: O=C(O)c1cc(=O)c2c(OCC(O)COc3cccc4oc(C(=O)O)cc(=O)c34)cccc2o1
MEASURED PARAMETER: EC50
MEASURED RESULT: > 200 µM
--
COMPOUND: Cc1nc2n(c1C(N)=O)CCS2
MEASURED PARAMETER: EC50
MEASURED RESULT: > 200 µM

Please report EC50 for every entry that follows.
1. c1cnc2c(c1)-n1cccc1C1(CCCCC1)NN2
2. Nc1nc2ccc(CO)nc2c(=O)[nH]1
3. COc1cc(C2C(C(=O)Nc3ccc([N+](=O)[O-])cc3)=C(C)NC(C)=C2C(=O)Nc2ccc([N+](=O)[O-])cc2)ccc1O
4. C1CCC(CSSCC2(N3CCCC3)CCCCC2)(N2CCCC2)CC1
5. O=C(NCCN1CCOCC1)c1ccc(I)cc1
6. CC(=O)NC(CO)C(=O)NC(Cc1ccc(O)cc1)C(=O)NCC(N)=O (stereo not drawn) (Ac-Ser-Tyr-Gly-NH2; configuration not given here)
7. COc1ccc(CN(Cc2ccccc2)c2ncccn2)cc1

Completion:
1: > 200 µM; 2: > 200 µM; 3: > 9.33 µM; 4: > 200 µM; 5: > 200 µM; 6: > 200 µM; 7: > 17 µM

* * *

tested on: CEM cells HIV-1 protection, formazan growth assay; test: NCI AIDS Antiviral Assay
Record form. Attribute: EC50. Fill in for each entry.

Observe how each entry below is paired with its result.
MOLECULE: COC1=C(C2=NC(C)(C)CO2)c2ccccc2C(C/C=C/[Si](C)(C)C)C1 (stereo not drawn)
EC50: > 26.9 µM
--
MOLECULE: CCCSc1nn2cc(NC(=O)OC)nc2s1
EC50: > 200 µM

Consider the additional molecule presented here.
Note to self: EC50 recorded for Cc1ccc(S(=O)(=O)Oc2nc3nc4ccccc4nc3nc2OS(=O)(=O)c2ccc(C)cc2)cc1 was > 200 µM

* * *

Please provide measured IC50 for the entries that follow.
tested on: CEM cells HIV-1 protection, formazan growth assay; test: NCI AIDS Antiviral Assay; details: measured here: growth of uninfected CEM cells

ITEM SMILES: O=C1N(Cc2ccccc2)[C@H]2CS(=O)(=O)C[C@@H]2N1Cc1ccccc1
IC50: > 200 µM
//
ITEM SMILES: COc1cccc(NC(=O)CSc2nnc(Cc3ccccc3)o2)c1
IC50: > 100 µM
//
ITEM SMILES: O=C(Cc1nc2ccccc2[nH]1)N/N=C1\SCC(=O)N1c1ccc(Cl)cc1
IC50: > 182 µM
//
ITEM SMILES: O=C(Nc1ccc(Cl)cc1Cl)/C(Cl)=C1/Sc2ccccc2NC1=O
IC50: > 6.76 µM

Here is the next item to consider.
The reported value for Cn1c(=O)[nH]c(=O)c2[nH]c(=O)c(=O)n(C)c21 in terms of IC50 is > 200 µM

* * *

tested on: CEM cells HIV-1 protection, formazan growth assay; assay: NCI AIDS Antiviral Assay
MEASURED PARAMETER: EC50

Consider the worked cases shown below.
COMPOUND: O=C1c2ccccc2-c2nnc3c(c21)-c1ccccc1C3
MEASURED PARAMETER: EC50
MEASURED RESULT: > 200 µM
--
COMPOUND: COc1cc(O)cc(O)c1C(=O)CC(Cl)(Cl)Cl
MEASURED PARAMETER: EC50
MEASURED RESULT: > 316 µM
--
COMPOUND: COc1ccc(N2C(=O)C3c4[nH]c5ccccc5c4C4CCCCCCCC4C3C2=O)cc1 (stereo unspecified)
MEASURED PARAMETER: EC50
MEASURED RESULT: > 200 µM

Give EC50 for each listed item.
1. CCC(c1ccc(Cl)cc1)N1CCC2(CC1)C(=O)NCN2c1ccccc1 (stereo unspecified)
2. COc1ccc(/C=C(\C#N)C(=O)c2ccccc2)cc1
3. Cc1c(CCCl)c(N=P(c2ccccc2)(c2ccccc2)c2ccccc2)n2c(nc3ccccc32)c1C#N
4. CC(C)(C)c1cc(S(=O)(=O)O)c2oc(-c3ccccc3)cc(=O)c2c1
5. CC1=C(C(=O)Nc2ccc(Cl)c(Cl)c2)C(c2ccc([N+](=O)[O-])cc2)C(C(=O)Nc2ccc(Cl)c(Cl)c2)=C(C)N1

Completion:
> 200 µM
> 97.7 µM
> 200 µM
> 200 µM
> 8.71 µM

// for each compound below, give its EC50
1. C=C(C(N)=O)c1ccc([N+](=O)[O-])o1
2. Nc1nc(Cl)c(N)c(NCC2(CO)CCC2)n1
3. O=[N+]([O-])C1C=Nc2ccccc2N=C1
4. COc1cc(C2c3cc4c(cc3OC(NN)C2C)OCO4)cc(OC)c1OC (stereo unspecified)
5. O=C(C(c1ccccc1)c1ccccc1)C(O)(c1ccccc1)c1ccccc1
6. COC(=O)C(=O)C(C(=O)C(=O)Nc1ccc(C)cc1C)c1nc2ccc(Cl)cc2[nH]c1=O (stereo unspecified)
7. CCOC(=O)C1=C(O)c2c(sc(C)c2-c2ccccc2)N(S(=O)(=O)c2ccc(C)cc2)CC1
8. CSC1=Nc2ccccc2SC(c2ccccc2)C1c1ccccc1 (stereo unspecified)

Completion:
1: > 200 µM; 2: > 200 µM; 3: > 200 µM; 4: > 200 µM; 5: 30.9 µM; 6: > 57.5 µM; 7: > 100 µM; 8: > 49 µM

* * *

test system: CEM cells HIV-1 protection, formazan growth assay; experiment: NCI AIDS Antiviral Assay;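 active = compounds giving half or more protection of infected cells from virus-caused growth loss, again on retest; inactive = the rest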
Allowed answers: true (1) for active, false (0) for inactive

Some entries whose results are on file:
COMPOUND: OCc1ccccc1C1CSCSC1
ANSWER LABEL: false (0)
//
COMPOUND: Cc1cccc(NC(=O)C(=O)C(C(=O)c2ccccc2F)C2OC(=O)c3ccccc32)c1Cl (stereo not drawn)
ANSWER LABEL: false (0)
//
COMPOUND: O=S(=O)(c1ccc(F)cc1)c1ccc(F)cc1
ANSWER LABEL: false (0)
//
COMPOUND: CC(=O)NNc1nc(C)c(C(/C=C/c2cccc([N+](=O)[O-])c2)=N/NC(=S)NN)s1
ANSWER LABEL: false (0)
//
COMPOUND: Clc1ccc(-c2c(C3=NCCN3)nnn2-c2ccccc2)cc1
ANSWER LABEL: false (0)
//
COMPOUND: COc1ccc(-c2cc(-c3ccncc3)nc(N)c2-c2ccc(F)cc2)cc1
ANSWER LABEL: false (0)

Prompt: Assay result, entry COc1ccc(N=Nc2ccc3oc(=O)c(C(=O)Nc4ccccc4C)cc3c2)cc1 — outcome?
Completion: false (0)

Prompt: Please let me know the test result on file for O=C(O)c1cc[c]([Sb](=[O])([OH])[OH])cc1 .
Completion: true (1)

Prompt: Status in this test for COc1ccc(Cl)cc1C(=O)c1cc(Cl)cc(S(=O)(=O)OC)c1OC ?
Completion: false (0)

Prompt: Entry CCC(=N\N=C(N)N)/C(CC)=N/N=C(N)N : call = ?
Completion: false (0)

* * *

Record form. Attribute: IC50. Fill in for each entry.
tested on: CEM cells HIV-1 protection, formazan growth assay; test: NCI AIDS Antiviral Assay; details: measured here: growth of uninfected CEM cells

Solved cases (5 shown):
COMPOUND: O=[N+]([O-])c1ccc(C2N3CCCCC3[C@H]3CCCCN23)cc1 (stereo partly specified)
MEASURED RESULT: > 24 µM
--
COMPOUND: O/N=C1/C(=C/c2ccc(OCc3ccccc3)cc2)CCCC1C(NO)c1ccc(OCc2ccccc2)cc1 (stereo unspecified)
MEASURED RESULT: > 7.08 µM
--
COMPOUND: C=CCCC(C)N(C(=O)OC(C)(C)C)S(=O)(=O)c1ccc(C)cc1 (stereo unspecified)
MEASURED RESULT: > 14.8 µM
--
COMPOUND: Nc1c(Br)cc(/C=C2\C=Cc3ccccc32)cc1Br
MEASURED RESULT: > 10 µM
--
COMPOUND: O=C(/C=C/c1ccc(OCCCOc2ccc(/C=C/C(=O)c3ccc(Cl)cc3)cc2)cc1)c1ccc(Cl)cc1
MEASURED RESULT: > 12.9 µM

Note to self: IC50 recorded for CCCCCCCCCCCCCCCCOC[C@@H](COC1OC(CO)C(O)C(O)C1O)OCCCCCCCCCCCCCCCC (stereo partly specified) was > 4.07 µM
